Values from ChEMBL document CHEMBL1201862

Kindly supply the reported AC50 values for the records listed here.
Target protein (sequence): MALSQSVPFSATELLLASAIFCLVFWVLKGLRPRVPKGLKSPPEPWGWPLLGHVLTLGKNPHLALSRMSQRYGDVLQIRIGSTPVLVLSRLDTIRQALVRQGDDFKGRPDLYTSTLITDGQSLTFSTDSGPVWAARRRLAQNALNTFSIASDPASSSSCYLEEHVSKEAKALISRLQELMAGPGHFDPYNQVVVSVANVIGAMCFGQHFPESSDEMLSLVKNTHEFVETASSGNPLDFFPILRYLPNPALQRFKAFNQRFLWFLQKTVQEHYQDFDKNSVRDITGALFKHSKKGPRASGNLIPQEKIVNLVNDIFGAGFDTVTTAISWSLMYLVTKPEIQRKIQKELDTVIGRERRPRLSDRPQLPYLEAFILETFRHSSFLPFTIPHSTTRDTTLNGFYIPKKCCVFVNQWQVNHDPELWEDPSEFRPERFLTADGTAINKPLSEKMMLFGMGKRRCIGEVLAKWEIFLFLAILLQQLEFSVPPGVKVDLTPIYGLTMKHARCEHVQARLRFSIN

QUERY: Find the recorded AC50 belonging to O=c1c(-c2ccccc2)nc2cnc(N3CCOCC3)nc2n1Cc1ccc(F)cc1 and report it.
RESULT: 20 µM (inconclusive)

QUERY: Now consider Cc1ccc(-n2nnnc2C(=Cc2ccc(N(C)C)cc2)c2nnnn2-c2ccc(C)cc2)cc1 .
RESULT: 12.6 µM (inconclusive)

QUERY: Now consider O=C1c2ccccc2C(Cc2ccncc2)(Cc2ccncc2)c2ccccc21 .
RESULT: 39.8 µM (inconclusive)
